# EXPERIMENTAL SYSTEM: S. aureus GyrB ATPase (Staphylococcus aureus)
# Sequence (P0A0K8 whole entry): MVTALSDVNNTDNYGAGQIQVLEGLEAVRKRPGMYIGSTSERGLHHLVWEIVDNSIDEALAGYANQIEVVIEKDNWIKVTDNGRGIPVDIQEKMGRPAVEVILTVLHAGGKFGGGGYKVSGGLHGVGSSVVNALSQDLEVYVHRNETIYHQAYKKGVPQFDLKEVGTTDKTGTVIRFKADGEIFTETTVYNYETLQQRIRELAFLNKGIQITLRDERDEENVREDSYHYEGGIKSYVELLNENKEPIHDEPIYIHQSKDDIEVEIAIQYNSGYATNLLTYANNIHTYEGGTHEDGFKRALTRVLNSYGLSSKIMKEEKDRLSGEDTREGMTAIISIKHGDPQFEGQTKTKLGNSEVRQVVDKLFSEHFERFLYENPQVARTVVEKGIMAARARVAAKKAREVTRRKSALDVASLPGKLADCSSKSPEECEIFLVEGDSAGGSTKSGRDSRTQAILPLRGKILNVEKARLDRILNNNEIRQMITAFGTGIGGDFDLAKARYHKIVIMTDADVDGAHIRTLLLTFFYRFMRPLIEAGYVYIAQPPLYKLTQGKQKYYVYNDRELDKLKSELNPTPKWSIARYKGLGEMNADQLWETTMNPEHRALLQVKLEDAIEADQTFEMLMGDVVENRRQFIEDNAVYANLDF
# Sequence (P0AES4 whole entry, further chain): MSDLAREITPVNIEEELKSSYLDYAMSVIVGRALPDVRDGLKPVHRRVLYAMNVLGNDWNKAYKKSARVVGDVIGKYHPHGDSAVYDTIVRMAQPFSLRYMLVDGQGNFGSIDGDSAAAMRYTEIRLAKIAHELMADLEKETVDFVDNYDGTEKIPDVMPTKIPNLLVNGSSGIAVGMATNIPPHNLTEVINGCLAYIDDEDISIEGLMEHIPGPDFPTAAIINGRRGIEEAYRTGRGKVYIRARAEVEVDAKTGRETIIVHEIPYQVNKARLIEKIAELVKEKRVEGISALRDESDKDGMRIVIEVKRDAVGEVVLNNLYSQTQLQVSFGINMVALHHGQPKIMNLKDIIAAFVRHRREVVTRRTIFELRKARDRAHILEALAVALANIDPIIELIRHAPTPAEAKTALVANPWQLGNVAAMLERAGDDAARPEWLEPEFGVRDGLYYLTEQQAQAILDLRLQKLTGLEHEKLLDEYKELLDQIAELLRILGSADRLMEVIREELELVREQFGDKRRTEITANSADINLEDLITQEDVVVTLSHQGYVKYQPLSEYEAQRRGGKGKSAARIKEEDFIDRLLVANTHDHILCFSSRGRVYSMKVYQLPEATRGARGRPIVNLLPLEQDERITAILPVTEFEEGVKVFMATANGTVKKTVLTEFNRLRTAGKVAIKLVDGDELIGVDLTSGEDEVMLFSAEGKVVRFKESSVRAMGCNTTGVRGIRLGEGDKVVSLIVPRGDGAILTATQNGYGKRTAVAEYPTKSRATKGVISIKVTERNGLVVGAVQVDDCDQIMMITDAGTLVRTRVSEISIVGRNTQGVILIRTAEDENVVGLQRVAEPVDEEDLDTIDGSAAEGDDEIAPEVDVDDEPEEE
# METHOD SUMMARY: S. aureus (SAU) GyrB ATPase inhibition, malachite green phosphate detection (E. coli GyrA + S. aureus GyrB)
# Type: biochemical
# ASSAY SETUP: compound concentration of 1.0 μM unless otherwise noted; average value where assay was carried out more than once; read-out: S. aureus (SAU) GyrB ATPase % Inhibition
# inhibition at 1 µM annotations
Write the value in % as a bare number.

Examples from the recorded data:
CCNC(=O)Nc1cc(-c2nc(-c3ccccn3)cs2)c(-c2cncc(-c3nnc(C)o3)c2)cn1 :: 98
CCNC(=O)Nc1cc(-c2nc(-c3ccccc3)cs2)c(-c2cc(OCC)nc(-c3n[nH]c(=O)o3)c2)cn1 :: 97
CCNC(=O)Nc1cc(-c2nc(C(F)(F)F)c(C(=O)NCCOC)s2)c(-c2cncc(-c3nnc(C)o3)c2)cn1 :: 92

Tested on S. aureus GyrB ATPase (Staphylococcus aureus): CCNC(=O)Nc1cc(-c2nc(-c3cccc(OC)n3)cs2)c(-c2nc(-c3ncnn3C)c(-c3nnc(C)o3)s2)cn1 . Observed inhibition at 1 µM: 99

Tested on S. aureus GyrB ATPase (Staphylococcus aureus): CCNC(=O)Nc1cc(-c2nc(-c3ccccc3)cs2)c(-c2ccc[n+]([O-])c2)cn1 . Observed inhibition at 1 µM: 103

Tested on S. aureus GyrB ATPase (Staphylococcus aureus): CCNC(=O)Nc1cc(-c2nc(C(F)(F)F)cs2)c(-c2cncc(-c3nn(CCO)c(=O)o3)c2)cn1 . Observed inhibition at 1 µM: 98

Tested on S. aureus GyrB ATPase (Staphylococcus aureus): CCNC(=O)Nc1cc(-c2nc(C(F)(F)F)cs2)c(-c2cncc(-c3nnc(N4CCCC(O)C4)o3)c2)cn1 (stereo not shown) . Observed inhibition at 1 µM: 97

----------
# EXPERIMENTAL SYSTEM: UniProt:P0A0K8
# METHOD SUMMARY: S. aureus (SAU) GyrB ATPase inhibition, malachite green phosphate detection (E. coli GyrA + S. aureus GyrB)
# Assay type: biochemical
# ASSAY SETUP: compound concentration of 1.0 μM unless otherwise noted; average value where assay was carried out more than once; read-out: S. aureus (SAU) GyrB ATPase % Inhibition
MEASUREMENT LABEL: inhibition at 1 µM (%)
Write the value in % as a bare number.

Examples from the recorded data:
CCNC(=O)Nc1cc(-c2sc(C)nc2C)c(-c2cncc(-c3n[nH]c(=O)o3)c2)cn1 :: 95
CCNC(=O)Nc1cc(-c2nc(C(F)(F)F)cs2)c(-c2c[nH]c(=O)c(-c3nnc(C)o3)c2)cn1 :: 96
CCCNC(=O)Nc1cc(-c2nc(C(F)(F)F)cs2)c(-c2cc(-c3n[nH]c(=O)o3)cnc2OCCN2CCCC2)cn1 :: 106
CCNC(=O)Nc1cc(-c2nc(C(F)(F)F)cs2)c(-c2cc(-c3n[nH]c(=O)o3)cnc2OC2C[C@H]3CC[C@@H](C2)N3C)cn1 (some centres unmarked) :: 100

Kindly note the recorded inhibition at 1 µM for CCNC(=O)Nc1cc(-c2nc(-c3ccccc3)cs2)c(-c2cc(-c3nnc(C)o3)cnc2CC)cn1 , which is 94

Kindly note the recorded inhibition at 1 µM for CCNC(=O)Nc1cc(-c2nc(C(F)(F)F)cs2)c(-c2cc(-c3nnc(C)o3)c[n+]([O-])c2)cn1 , which is 98

Kindly note the recorded inhibition at 1 µM for CCNC(=O)Nc1cc(-c2nc(C(F)(F)F)cs2)c(-c2cc(-c3n[nH]c(=O)o3)cnc2OC2CCCC2)cn1 , which is 95

Kindly note the recorded inhibition at 1 µM for CCNC(=O)Nc1cc(-c2nc(C(F)(F)F)c(C(=O)NC3CC3)s2)c(-c2cncc(-c3nnc(C)o3)c2)cn1 , which is 93

Kindly note the recorded inhibition at 1 µM for CCNC(=O)Nc1cc(-c2nc(C(F)(F)F)c(C(=O)NC3CCCC3)s2)c(-c2cncc(-c3nnc(C)o3)c2)cn1 , which is 96

Kindly note the recorded inhibition at 1 µM for CCNC(=O)Nc1cc(-c2nc(-c3cccc(OC)n3)cs2)c(-c2ccnc(-c3nnc(C)o3)c2)cn1 , which is 97

Kindly note the recorded inhibition at 1 µM for CCNC(=O)Nc1cc(-c2nnc(-c3ccccc3)o2)c(-c2nc(-c3n[nH]c(=O)o3)cs2)cn1 , which is 89
